ASSAY PROCEDURE: SK-BR-3 cell growth inhibitors, pilot screen, 24 h, human (AID 572);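 also: compound exposure lasted between 18 and 24 h rather than exactly 24 h; 100% = carrier-treated control wells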
CONDITION SUMMARY: SK-BR-3 viability, CellTiter-Glo luminescence, at 10 µM, stronger effect = lower value
Reported viability is given for each of the following compounds.
OUTCOME MEASURE: viability (%)

> print(dat)
                                    compound  outcome.measure  result.number
 1  COc1cc2c(cc1OC)C(c1ccccc1O)N(C1CC(=O)N(c3ccccc3)C1=O)CC2 (configuration not stated)        viability            113
 2                        Brc1ccc2[nH]ncc2c1        viability            101
 3       O=C(NCc1ccccn1)c1cc(-n2cnnc2)ccc1Cl        viability             86
 4  COc1ccc2nc(S(=O)Cc3ncc(C)c(OC)c3C)[nH]c2c1 (configuration not stated)        viability             88
 5        COc1ccc(S(=O)(=O)Nc2cc(C)on2)cc1OC        viability             80
 6  CCOc1ccc2oc(-c3ccccc3)c(C(=O)N3CCN(CCO)CC3)c2c1        viability           97.5
 7  Cc1cccc(NC(=O)c2ccc(S(=O)(=O)N(C)C)cc2)n1        viability            112
 8                 O=C(c1ccc(Cl)cc1)N1CCCOC1        viability             89
 9                    CCc1ccccc1OCCCCN1CCCC1        viability            124
10         COC(=O)CSc1nnc(-c2ccc(OC)cc2OC)o1        viability             77
11  Cc1onc(-c2c(F)cccc2Cl)c1C(=O)Nc1nc2c(s1)CCCC2        viability            109
12  CCC1CCc2c(sc3ncnc(N4CCOCC4)c23)C1 (configuration not stated)        viability           89.5

----------
Reported viability is given for each of the following compounds.
ASSAY PROCEDURE: reversal of MRP1-mediated doxorubicin resistance, pilot screen, H69AR cells, doxorubicin co-treatment (AID 601)
CONDITION SUMMARY: H69AR cells, CellTiter-Glo, 72 h; compound alone cytotoxicity; at 10 µM
OUTCOME MEASURE: viability

> print(dat)
                                   compound  outcome.measure  result
1  O=C(NC12CC3CC(CC(C3)C1)C2)N1CCN(C(=O)C2CCCO2)CC1 (stereo unspecified)        viability   95.6%
2  CCOC(=O)C1=C[C@]2(CC)CCCN3CCc4c(n1c1ccccc41)[C@@H]32        viability   80.1%
3  COc1ccccc1-c1nc2n(n1)C(c1ccc(Cl)cc1)C(C(N)=O)=C(C)N2 (stereo unspecified)        viability   83.5%
4  O=C(NCc1ccccn1)c1ccc2nc(-c3ccco3)c(-c3ccco3)nc2c1        viability   73.8%
5  O=S(=O)(c1cccs1)N1CCN(Cc2nc3ccccc3s2)CC1        viability   84.9%
6        O=C(Nc1nccs1)c1cccc(NC(=O)C2CC2)c1        viability   87.5%

----------
# inhibition annotations
ASSAY PROCEDURE: growth suppression of yeast trafficking mutant, preliminary HTS, modulators of trafficking downstream of Golgi apparatus project, 1536-format plate, OD 615 nm (AID 637)
CONDITION SUMMARY: yeast transport mutant growth, absorbance 615 nm, 18 h; stronger effect = higher value
OUTCOME MEASURE: inhibition (%)

> print(dat)
                                    compound  units.of.measure  result.number
 1  CCCc1[nH]nc2c1C(c1cn[nH]c1-c1ccc(F)cc1)C(C#N)=C(N)O2 (stereo not given)                 %           2.95
 2  CN/C=C1\C(=O)C(C)(C)Oc2ccc3ccc(=O)oc3c21                 %           0.18
 3  C/C(N)=C(/C#N)C(=O)COC(=O)c1cc(S(=O)(=O)N2CCCCC2)ccc1C                 %          -3.83
 4  COc1cccc(NC(=O)N(CCCN2CCOCC2)C(C)c2cc3cccc(OC)c3o2)c1 (stereo not given)                 %          -0.55
 5  CNC(=O)Oc1ccc2c(c1)[C@]1(C)CCN(C)[C@@H]1N2C                 %              2
 6  CCOC(=O)CCC(=O)Nc1ccc(S(=O)(=O)N2CCCC2)cc1                 %           -4.6
 7  Cc1c(NC(=O)c2nn(C)c(=O)c3ccccc23)c(=O)n(-c2ccccc2)n1C                 %          -8.06
 8           CN(C)c1cccc(NC(=O)CCc2ccccc2)c1                 %           2.38
 9  COc1cccc2sc(NC(=O)c3ccc(S(=O)(=O)N4CCOCC4)cc3)nc12                 %          -8.18
10  CCC(CC)C1C(C#N)=C(N)Oc2n[nH]c(C)c21 (stereo not given)                 %          -0.18
11  Cc1nc2ccc(S(=O)(=O)NCC(=O)N3CCCCC3)cc2s1                 %           0.16
12  CC(C)CNS(=O)(=O)c1ccc(CCC(=O)NCc2ccco2)cc1                 %           1.29
13  C=CCN1C(=O)C2(/C(=C(\O)c3ccc4c(c3)OCCO4)C(=O)C(=O)N2CCCOC)c2ccccc21 (stereo not given)                 %           0.48
14  CCOC(=O)c1sc2nc(SCC(=O)NCc3ccco3)n(Cc3ccccc3)c(=O)c2c1C                 %           0.98
15         Cc1nc(N)[nH]c(=O)c1CCC(=O)OCC(C)C                 %          -0.66
16  COc1ccc(C)cc1C(=O)CCC(=O)Nc1ccccc1N1CCOCC1                 %           1.31
17  CCOC(=O)C(NC(=O)CC)(Nc1ccc(S(=O)(=O)Nc2onc(C)c2C)cc1)C(F)(F)F (stereo not given)                 %          -0.48
18  COc1ccccc1CC(=O)NCC1CCCO1 (stereo not given)                 %          -4.55
19  O=C(c1ccc(-c2ccccc2)cc1)N1CCC(C(=O)N2CCCC2)CC1                 %           5.71
20           Cc1cc(NS(=O)(=O)c2ccc(N)cc2)no1                 %           -3.5
21         O=C(Nc1ncnc2sc3c(c12)CCC3)c1ccco1                 %           0.55
22  Cc1ccc(CN2C(=O)CCC2C(=O)NCCCN2CCCC(C)C2)cc1 (stereo not given)                 %          -3.45
23  Cc1nn(C)c(C)c1NC(=O)CSc1nc(Cc2ccccc2)nc2c1cnn2-c1ccccc1                 %           5.48
24  COC(=O)c1cccc(Nc2cc(C)nc(-c3ccccc3O)n2)c1                 %           2.18
25                 COc1ccccc1CNC(=O)Nc1cccs1                 %            4.1
26  COc1ccccc1NC(=O)C(C)NS(=O)(=O)c1ccc(F)cc1 (stereo not given)                 %              0
27  CS(=O)(=O)c1ncc(Cl)c(C(=O)Nc2ccc(N3CCOCC3)cc2)n1                 %           3.65
28             O=C(Nc1ccc(N2CCOCC2)cc1)C1CC1                 %           3.49
29   O=C(c1cccnc1)N1CCN(Cc2ccc3c(c2)OCO3)CC1                 %           1.75
30  COc1cccc(OCc2nnc(SCC(=O)OCc3ccccc3)o2)c1                 %          -3.09
31     COc1cc2c(C#N)c(N3CCOCC3)nc(N)c2c(N)n1                 %           0.82
32  COc1ccc(C(O)Cn2c(=N)n(CCCN(C)C)c3ccccc32)cc1 (stereo not given)                 %          -6.51
33  CCOC(=O)c1c(NC(=O)COC(=O)c2c(C)noc2C)sc2c1CCC2                 %          -3.87
34  C=C(C)COc1ccc(-c2nc(N)ncc2Oc2ccccc2OCC)c(O)c1                 %           24.4
35      CCOc1ccc(NC(=O)CSc2nc3cccnc3n2CC)cc1                 %            4.1
36  CC(=O)OC1CSc2nc3ccccc3n2C1 (stereo not given)                 %           3.45
37  c1ccc(Cn2ncc3c2ncn2c(-c4ccncc4)nnc32)cc1                 %          -6.77
38  O=C(Nc1ccc(F)cc1)N(CCCN1CCOCC1)Cc1cc2cc3c(cc2[nH]c1=O)OCO3                 %           2.55
39           Cc1sc2nc3n(c(=O)c2c1C)NC(=O)CC3                 %           1.82
40  COC(=O)C1CCN(C(=O)CN2C(=O)NC(CCc3ccccc3)C2=O)CC1 (stereo not given)                 %           3.87
41  CC(C)C12CN3CC(C(C)C)(CN(C1)C3c1ccc3c(c1)OCO3)C2=O (stereo not given)                 %           0.18
42  C(=C\c1ccccc1)/CSc1nnc(-c2ccccn2)n1Cc1ccco1                 %          -0.16
43  COc1ccc(-c2ccc(=O)n(Cc3cc(=O)n4ccccc4n3)n2)cc1                 %           4.36
44  CC(Sc1nnc(-c2cc3ccccc3o2)n1-c1ccccc1)C(=O)O (stereo not given)                 %           2.38
45          CCCn1cnc2c(cnn2-c2ccc(F)cc2)c1=O                 %           0.16
